# Tested on: Erythrocyte
# test description: Antihemolytic activity in RBC (unknown origin) at 40 ug/ml relative to control
measured metric: Activity

Below are worked cases with known answers.
| smiles input | target system | measured metric | observed measurement |
| --- | --- | --- | --- |
| C=CCn1c(-c2ccc(Br)cc2)cs/c1=N/NC(=O)c1cn(-c2ccccc2)nc1-c1ccc(OC)cc1 | Erythrocyte | Activity | 68% |
| COc1ccc(-c2nn(-c3ccccc3)cc2C(=O)N/N=C/c2cccc(O)c2)cc1 | Erythrocyte | Activity | 44% |
| COc1ccc(-c2nn(-c3ccccc3)cc2C(=O)N/N=c2/scc(-c3ccccc3)n2-c2ccccc2)cc1 | Erythrocyte | Activity | 99.8% |

Reported Activity, compound COc1ccc(-c2nn(-c3ccccc3)cc2C(=O)N/N=C/c2cc(OC)c(OC)c(OC)c2)cc1 : ____
97.8%

---

# test description: Acute toxicity in mouse assessed as mouse death at 150 mg/kg, po after 3 days
# Assay type: organism-based
# condition summary: in vivo, 72 h
measured metric: Activity

| smiles input | observed measurement |
| --- | --- |
| COc1ccc(-c2nn(-c3ccccc3)cc2C(=O)N/N=C/c2cc(OC)c(OC)c(OC)c2)cc1 | Non-Toxic |
| COc1ccc(-c2nn(-c3ccccc3)cc2C(=O)N/N=c2/scc(-c3ccccc3)n2-c2ccccc2)cc1 | Non-Toxic |
| C=CCn1c(-c2ccc(Br)cc2)cs/c1=N/NC(=O)c1cn(-c2ccccc2)nc1-c1ccc(OC)cc1 | Non-Toxic |
| COc1ccc(-c2nn(-c3ccccc3)cc2C(=O)N/N=C/c2cccc(O)c2)cc1 | Non-Toxic |

---

# System: Plasmodium berghei
# test description: Anti-plasmodial activity against Plasmodium berghei ANKA infected in mouse assessed as mean survival time at 0.048 mmol/kg/day, po administered as single dose at 24 hrs time interval from day 1 to day 3 and measured 96 hrs post infection (reference value: 4.33 +/- 0.7 day)
# Format: functional
measured metric: MST (days)
Answers are plain numbers, in days.

Illustrative cases are given below, each with its answer.
| compound | MST [days] |
| --- | --- |
| CCN(CC)CCCC(C)Nc1ccnc2cc(Cl)ccc12.O=P(O)(O)O.O=P(O)(O)O (stereo not given) [CHLOROQUINE PHOSPHATE] | 12.22 |
| COc1ccc(-c2nn(-c3ccccc3)cc2C(=O)NNC=O)cc1 | 6.66 |
| C=CCn1c(-c2cn(-c3ccccc3)nc2-c2ccc(OC)cc2)n[nH]c1=S | 5.5 |
| COc1ccc(-c2nn(-c3ccccc3)cc2C(=O)N/N=C/c2ccccc2)cc1 | 9.33 |

Could you now look at the following compound, please?
# get_value(readout='MST', item= COc1ccc(-c2nn(-c3ccccc3)cc2C(=O)N/N=C/c2cccs2)cc1 )
11.5
